From: ChEMBL document CHEMBL1128401

# assayed.system: D(3) dopamine receptor (Rattus norvegicus, UniProt P19020)
# Sequence (P19020 whole entry): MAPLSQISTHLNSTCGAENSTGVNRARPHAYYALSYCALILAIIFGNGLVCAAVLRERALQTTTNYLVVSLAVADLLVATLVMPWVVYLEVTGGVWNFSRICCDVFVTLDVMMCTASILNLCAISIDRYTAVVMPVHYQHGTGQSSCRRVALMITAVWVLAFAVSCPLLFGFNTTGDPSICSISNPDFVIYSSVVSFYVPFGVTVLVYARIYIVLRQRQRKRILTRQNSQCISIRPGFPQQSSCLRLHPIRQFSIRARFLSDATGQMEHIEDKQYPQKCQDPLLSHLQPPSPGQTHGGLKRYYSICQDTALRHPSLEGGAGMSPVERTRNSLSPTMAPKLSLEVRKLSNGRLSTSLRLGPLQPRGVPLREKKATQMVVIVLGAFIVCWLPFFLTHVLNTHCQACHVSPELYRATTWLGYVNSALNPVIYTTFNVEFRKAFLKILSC
# protocol.text: Binding affinity against Dopamine receptor D3 from CHO-K1 cells, using [3H]spiperone as the radioligand.
# Type: cell-based
# test.context: read-out: Ki
Item-by-item account of Ki

molecule | assayed.system | Ki / nM
CCCN(CCC)C1CCc2cc(F)c3[nH]cc(C(=O)CC)c3c2C1 (stereo not drawn) | D(3) dopamine receptor (Rattus norvegicus, UniProt P19020) | 542
CCCN(CCC)C1CCc2ccc3c(c(C=O)cn3C)c2C1 (stereo not drawn) | D(3) dopamine receptor (Rattus norvegicus, UniProt P19020) | 1010
CCCN(CCC)[C@H]1CCc2cc(F)c3[nH]cc(C=O)c3c2C1 | D(3) dopamine receptor (Rattus norvegicus, UniProt P19020) | 78
CCCN(CCC)C1CCc2cc(F)c3c(ccn3C)c2C1 (stereo not drawn) | D(3) dopamine receptor (Rattus norvegicus, UniProt P19020) | 52
CCCN(CCC)C1CCc2ccc3[nH]cc(C=O)c3c2C1 (stereo not drawn) | D(3) dopamine receptor (Rattus norvegicus, UniProt P19020) | 70
CCCN(CCC)C1CCc2cc(F)c3[nH]cc(C#N)c3c2C1 (stereo not drawn) | D(3) dopamine receptor (Rattus norvegicus, UniProt P19020) | 63
CCCN(CCC)C1CCc2cccc(O)c2C1 (stereo not drawn) [8-OH-DPAT] | D(3) dopamine receptor (Rattus norvegicus, UniProt P19020) | 333
CCCN(CCC)[C@@H]1CCc2ccc3[nH]cc(C=O)c3c2C1 | D(3) dopamine receptor (Rattus norvegicus, UniProt P19020) | 51
CCCN(CCC)C1CCc2ccc3c(c2C1)CC(=O)N3 (stereo not drawn) | D(3) dopamine receptor (Rattus norvegicus, UniProt P19020) | 23
CCCN(CCC)[C@H]1CCc2ccc3[nH]cc(C=O)c3c2C1 | D(3) dopamine receptor (Rattus norvegicus, UniProt P19020) | 751
CCCc1c[nH]c2c(F)cc3c(c12)CC(N(CCC)CCC)CC3 (stereo not drawn) | D(3) dopamine receptor (Rattus norvegicus, UniProt P19020) | 111
CCCN(CCC)C1CCc2ccc3[nH]cc(C(=O)C(F)(F)F)c3c2C1 (stereo not drawn) | D(3) dopamine receptor (Rattus norvegicus, UniProt P19020) | 675
CCCN(CCC)[C@@H]1CCc2cc(F)c3[nH]cc(C=O)c3c2C1 | D(3) dopamine receptor (Rattus norvegicus, UniProt P19020) | 55
